Assay: qHTS for Inhibitors of human tyrosyl-DNA phosphodiesterase 1 (TDP1): qHTS in cells in absence of CPT; also: nearly all actives have a fitted effect of over 55% in size
Settings: DT40 Tdp1-/- hTDP1 cells, no CPT, ATP luminescence, 48 h
Hit rate of the full screen: of about 420,000 compounds, about 64,000 (15%) were called active. Inconclusive results (about 27%) are left out. Calls follow the shape of the dose curve; as a rule, active = well fitted inhibition curve with a large enough effect; inconclusive = small, poorly fitted or top-dose-only effect; inactive = flat fitted curve, though single readings scatter. A selection follows.
Classes used: active, inactive

                                    compound  answer_label
 0             Cc1nnsc1C(=O)N/N=C/c1ccccc1Cl      inactive
 1       CC(C)n1c(=S)[nH]c2cc(C(F)(F)F)ccc21        active
 2  O=S1(=O)CCN2C(=N1)SC1=C2CCN(Cc2ccccc2)C1      inactive
 3  Cc1ccc(S(=O)(=O)N(C)C)cc1NC(=O)COC(=O)/C=C/c1cccs1      inactive
 4   Cc1cccc(NC(=O)c2ccccc2NC(=O)C(C)(C)C)n1      inactive
 5         O=C(CSCc1ccccc1Cl)NNC(=O)c1ccccc1      inactive
 6  Cc1ccc(/C=N/NC(=O)C2=NNC(c3ccccc3)(c3ccccc3)C2)c(O)c1        active
 7  Cc1cc(C)c(C#N)c(SCC(=O)NN2CC(=O)N(c3ccccc3F)CC2=O)n1      inactive
 8  Cc1cccc(CS(=O)(=O)c2ncc(Cl)c(C(=O)Nc3ccc(F)cc3)n2)c1        active
 9  O=C(c1ccccc1)c1cccn1CC(=O)N1CCN(c2ccc(F)cc2)CC1      inactive
10  CCc1ccc(C2C(C(=O)Nc3ccccc3)=C(C)Nc3c(C(=O)Nc4ccc(C)cc4)cnn32)cc1 (stereo unspecified)        active
11  O=C(C[n+]1cc(-c2ccc(Cl)c(Cl)c2)n2c1CCC2)c1cccs1        active
12  CCCN1CC=C2C(C#N)=C(N)C(C#N)(C#N)C(c3cc(OC)ccc3OC)C2C1 (stereo unspecified)      inactive
13         CCS(=O)(=O)N1CCN(C(=O)c2cccs2)CC1      inactive
14  CCn1nc(C)c(CNC(=O)C2CCC(=O)N(Cc3cccc(F)c3)C2)c1C (stereo unspecified)      inactive
15      O=C(N/N=C/c1ccc(O)c2ccccc12)c1cccnc1      inactive
16  Cc1cc(=O)n2nc(N3CCC(C(=O)Nc4c(F)c(F)c(F)c(F)c4F)CC3)sc2n1      inactive
17  CCOc1cc(/C=N/NC(=O)OC)ccc1OCCSc1ccc(Cl)cc1      inactive
18            COC(=O)c1cccc(-n2[nH]nnc2=S)c1      inactive
19  O=C(CNC(=O)OCc1ccccc1)Oc1cc2oc(=O)cc(-c3ccccc3)c2cc1Cl        active
20  O=C(O[C@H]1[C@H](Cc2ccccc2)NS(=O)(=O)[C@H]2C[C@@H]3C=C[C@]12O3)c1ccc([N+](=O)[O-])cc1      inactive
21       Cc1ccc(C(=O)N2CCCC(c3ccccc3)=N2)cc1      inactive
22  CCN1CCN(C(=O)CN(C)S(=O)(=O)c2ccc(OC)cc2)CC1      inactive
23   N#Cc1c(-c2ccc(Cl)cc2)c2c([nH]c1=S)CCCC2      inactive
24  COc1cc(N2C(=O)c3ccccc3C2=O)c(Cl)cc1C(=O)OCC(=O)N1CCOCC1      inactive
25  CCC(Cc1ccccc1)NC(=O)C1CCCCC1 (stereo unspecified)      inactive
26          O/N=C(\C[n+]1ccccc1)c1ccc(Br)cc1      inactive
27         CCCn1c(=S)[nH]c2ccc(C(F)(F)F)cc21      inactive
28               Cc1cccc(NC(=O)c2cccnc2Cl)n1      inactive
29               O=C(O)c1ccc(N=NN2CCOCC2)cc1      inactive
30  CC(C)C(NC(=O)c1ccc(Cl)cc1)C(=O)O (stereo unspecified)      inactive
31  COc1cccc(C2C(C(=O)Nc3ccc(C)cc3C)=C(C)Nc3c(C(=O)Nc4ccccc4)cnn32)c1 (stereo unspecified)      inactive
32  COc1ccc(OC)c(Cc2nnc(CCC(=O)NC3CCCC3)o2)c1      inactive
33        CCCS(=O)(=O)N1CCN(C(=O)c2cccs2)CC1      inactive
34  CCOC(=O)CNC(=O)CSc1ncccc1-c1nc2ccccc2[nH]1      inactive
35    Cc1cc(NC(=O)CCS(=O)(=O)c2ccc(F)cc2)no1      inactive
36         FC(F)(F)c1cccc(Nc2ncnc3ccccc23)c1        active
37         COc1cc(NS(=O)(=O)c2cccs2)cc(OC)c1      inactive
38  NS(=O)(=O)c1ccc2nc(NC(=O)C3=COCCO3)sc2c1      inactive
39  COCCN(C(=O)C(C)N1C(=O)c2ccccc2C1=O)c1c(N)n(CC(C)C)c(=O)[nH]c1=O (stereo unspecified)      inactive
40  Cc1ccc(S(=O)(=O)N(C)CC(=O)OCC(=O)Nc2ccccc2)cc1      inactive
41  CCC1OC(c2ccc([N+](=O)[O-])cc2)=Nc2ccccc21 (stereo unspecified)      inactive
42  Cc1cccc(OCc2ccc(C(=O)Nc3ccc(F)cc3)cc2)c1      inactive
43                 Cc1c(C(=O)O)nnn1-c1nonc1N      inactive
44      CSc1nccc(NC(=O)c2ccc(C(C)(C)C)cc2)n1        active
45                  Cc1ccc(C(=O)Cn2cccn2)cc1      inactive

====

Assay: qHTS for Inhibitors of human tyrosyl-DNA phosphodiesterase 1 (TDP1): qHTS in cells in absence of CPT; also: nearly all actives have a fitted effect of over 55% in size
Details: DT40 Tdp1-/- hTDP1 cells, no CPT, ATP luminescence, 48 h
Out of some 420,000 compounds screened, about 64,000 (15%) were called active. Roughly 27% stayed inconclusive and do not appear here. Calls come from the whole dose curve; as a rule, active = well fitted inhibition curve with a large enough effect; inconclusive = small, poorly fitted or top-dose-only effect; inactive = flat fitted curve, though single readings scatter. Not all results are given here.
Classes used: active, inactive

                                   molecule  answer_label
0  COc1cccc(NC(=O)c2ccc(Cn3cc([N+](=O)[O-])cn3)o2)c1      inactive
1  CC(=O)c1cccc(NC(=O)N2CCCC2C(=O)NCCc2ccccc2)c1 (centres undefined)      inactive
2  O=C(Nc1cccc(NC(=O)c2ccccc2[N+](=O)[O-])c1)c1ccccc1Cl      inactive
3  CN(C(=O)c1cccc(NC(=O)Cc2ccc(NC(=O)C3CCCN(C(=O)C4CCCC4)C3)cc2)c1)C1CCC1 (centres undefined)        active
4  CCNC(=O)c1cccc(NC(=O)C2CC(=O)N(CCc3ccccc3)C2)c1 (centres undefined)      inactive
5  CN(C(=O)c1cccc(NC(=O)C2CCN(C(=O)OC(C)(C)C)CC2)c1)C1CCC1      inactive
6  CN(C(=O)c1ccc(NC(=O)Cc2cccc(NC(=O)C3CCN(C(=O)c4ccccc4)CC3)c2)cc1)C1CC1      inactive
7  CN(C(=O)c1cccc(NC(=O)Cc2ccc(NC(=O)C3CCCN(C(=O)C4CC4)C3)cc2)c1)C1CC1 (centres undefined)      inactive
8  CN(C(=O)c1cccc(NC(=O)Cc2cccc(NC(=O)C3CCCN(C(=O)C4CC4)C3)c2)c1)C1CCC1 (centres undefined)      inactive

====

Experiment: qHTS for Inhibitors of human tyrosyl-DNA phosphodiesterase 1 (TDP1): qHTS in cells in absence of CPT; also: nearly all actives have a fitted effect of over 55% in size
Conditions: DT40 Tdp1-/- hTDP1 cells, no CPT, ATP luminescence, 48 h
Among all 420,000 compounds or so, about 64,000 (15%) were called active. About 27% were inconclusive and are not listed. Not all results are given here.
EXPERIMENTAL ENDPOINT: outcome

>>> print(df.to_string())
                                   compound  experimental_endpoint  reported_value
0  CCOc1ccc(S(=O)(=O)N2CCN=C2Cc2ccccc2)cc1C                outcome        inactive
1  CN(C)N1C(N)=C(C#N)C(c2ccc(Br)cc2)C2=C1CCCC2=O (stereo not given)                outcome        inactive
2  Cc1ccc(C)c2[nH]c(=O)c(CCNC(=O)c3cccs3)cc12                outcome        inactive
3  CCCCC(=O)OC1=CN(Cc2ccccc2)S(=O)(=O)c2ccccc21                outcome        inactive
4  COc1cc(/C=C/C(=O)O)cc(S(=O)(=O)Nc2ccccc2C(=O)NCCc2ccccc2)c1OC                outcome        inactive

====

Assay: qHTS for Inhibitors of human tyrosyl-DNA phosphodiesterase 1 (TDP1): qHTS in cells in absence of CPT; also: nearly all actives have a fitted effect of over 55% in size
Settings: DT40 Tdp1-/- hTDP1 cells, no CPT, ATP luminescence, 48 h
Out of some 420,000 compounds screened, about 64,000 (15%) were called active. About 27% were inconclusive and are not listed. Calls follow the shape of the dose curve; as a rule, active = well fitted inhibition curve with a large enough effect; inconclusive = small, poorly fitted or top-dose-only effect; inactive = flat fitted curve, though single readings scatter. Not all results are given here.
Classes used: Y (active), N (inactive)

COMPOUND	ANSWER LABEL
N=c1c2c3c(sc2ncn1N)CCCC3	N
COCC(=O)Nc1nnc(COc2ccccc2)s1	N
COc1cccc(OC)c1C(=O)NC(=S)NCc1ccco1	N
CCN(CC)S(=O)(=O)c1ccc(N2CCCC2)c(NC(=O)c2ccc([N+](=O)[O-])o2)c1	Y
COc1cc(C(=O)N[C@@H](C)C(=O)NCc2ccco2)cc(OC)c1OC	N
CCOCCCN1C(=O)CN(C2CCCCC2)C(=O)C1c1ccc(OCC)c(OC)c1 (stereo unspecified)	N
NS(=O)(=O)c1ccc(CCNC(=O)COC(=O)COc2cccc(C(F)(F)F)c2)cc1	N
CCc1cccc(C)c1NC(=O)CSc1nnc(-c2ccco2)n1N	N
Cn1c(C(=O)N2CCCC(C(=O)NCc3ccccc3)C2)cc2sccc21 (stereo unspecified)	N
O=C1c2cccc3cccc(c23)N1CN1CCN(c2ccccn2)CC1	N
Cc1nn(-c2ccccc2)c2[nH]c(C(F)(F)F)cc(=O)c12	N
CC[C@H]1OC(=O)[C@H](C)[C@@H](O[C@H]2C[C@@](C)(OC)[C@@H](O)[C@H](C)O2)[C@H](C)[C@@H](O[C@@H]2O[C@H](C)C[C@H](N(C)C)[C@H]2O)[C@](C)(O)C[C@@H](C)[C@@H]2N[C@@H](COCCOC)O[C@H]([C@H]2C)[C@]1(C)O	N
COc1ccc(CC(=O)Nc2cc(S(=O)(=O)N3CCCCC3)ccc2N2CCN(C)CC2)cc1	N
COc1cc(C(=O)NC(=S)NCc2ccco2)cc(OC)c1OC	Y
Cc1cc(=O)oc2cc(NC(=O)C(C)Oc3ccccc3)ccc12 (stereo unspecified)	N
CCc1ccc(OCC(=O)OCC(=O)c2c(N)n(C)c(=O)n(C)c2=O)cc1	N
Cc1ccnc(Nc2nc3ccccc3s2)n1	N
COc1ccc(CC(=O)Nc2ccccc2NC(=O)c2ccco2)cc1OC	N
CSc1nnc(CNC(=O)c2ccccc2)n1-c1ccc(F)cc1	N
Cc1nc(N)[nH]c(=O)c1Oc1cccc(C(F)(F)F)c1	N
CCN(CC)S(=O)(=O)c1ccc(N2CCOCC2)c(NC(=O)C2COc3ccccc3O2)c1 (stereo unspecified)	Y
